Test system: Helicobacter pylori J99
Assay: Paper disc diffusion test, inhibition zone on agar plate
Format: cell-based
Conditions: Helicobacter pylori, J99; 4 mg/disc; blank disc 8 mm; read-out: inhibition growth diameter
readoutLabel: zone of inhibition at 4 mg/disc (mm)

{"compound": "O=C(O)C1CCC(C(=O)O)CC1 (centres unmarked)", "valueMeasured": 12}
{"compound": "Cc1ccc(C(=O)O)cc1N", "valueMeasured": 14}
{"compound": "O=C(O)CCc1ccccc1", "valueMeasured": 34}
{"compound": "O=C(O)c1ccccc1C(=O)O", "valueMeasured": 12}
{"compound": "Cc1ccc(C(O)=S)cc1", "valueMeasured": 40}
{"compound": "O=C(O)Cc1ccccc1", "valueMeasured": 22}
{"compound": "COc1ccccc1CC(=O)O", "valueMeasured": 16}
{"compound": "O=C(O)CCCc1ccccc1", "valueMeasured": 28}
